# target_under_test: Cyclin-dependent kinase inhibitor 1 (Homo sapiens, UniProt P38936)
# Sequence (P38936 whole entry): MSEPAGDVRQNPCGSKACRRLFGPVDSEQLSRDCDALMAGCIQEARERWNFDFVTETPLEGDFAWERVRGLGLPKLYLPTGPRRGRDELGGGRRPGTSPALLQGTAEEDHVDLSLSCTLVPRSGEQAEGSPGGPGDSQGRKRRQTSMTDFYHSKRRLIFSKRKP
# test_protocol: Inhibition of p21 (unknown origin)-induced transcription in human HT1080 p21-9-CMV-GFP cells after 3 days by fluorescence assay
quantity: pIC50
# reply with the number alone; pIC50 is -log10 of concentration in mol/L

Look up pIC50 with Cyclin-dependent kinase inhibitor 1 (Homo sapiens, UniProt P38936) for this compound: N#Cc1ccc2ncnc(NCCc3ccccc3)c2c1
6.19

Each recorded value in this set is attributed to BindingDB's records for doi:10.1021/acs.jmedchem.7b00901.
